Documented neutralization IC50 across a set of binders
Biological target: Env of HIV-1 strain Du172.17 (HIV-1)
Experiment: cell-based or functional assay

Query block: Supply measured neutralization IC50 of γ20κ3 (antibody, V domains shown) VH: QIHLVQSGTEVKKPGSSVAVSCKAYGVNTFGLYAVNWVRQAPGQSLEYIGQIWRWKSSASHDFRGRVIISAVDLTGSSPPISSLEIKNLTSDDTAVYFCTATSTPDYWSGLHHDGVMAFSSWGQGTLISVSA VL: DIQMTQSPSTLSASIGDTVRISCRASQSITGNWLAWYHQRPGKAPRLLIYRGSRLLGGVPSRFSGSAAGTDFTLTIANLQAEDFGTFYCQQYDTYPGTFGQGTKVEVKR in your reply.
Result block: > 15 µg/mL

Query block: Please indicate neutralization IC50 recorded for γ15κ18 (antibody, V domains shown) VH: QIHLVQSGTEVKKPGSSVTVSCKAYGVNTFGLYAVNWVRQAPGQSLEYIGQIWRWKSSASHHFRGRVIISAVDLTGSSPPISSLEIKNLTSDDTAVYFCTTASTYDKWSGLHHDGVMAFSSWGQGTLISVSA VL: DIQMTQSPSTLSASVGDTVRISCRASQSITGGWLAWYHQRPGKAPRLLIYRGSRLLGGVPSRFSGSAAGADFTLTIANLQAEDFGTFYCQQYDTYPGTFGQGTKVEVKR
Result block: > 15 µg/mL

Query block: Report measured neutralization IC50; entry is γ4κ18 (antibody, V domains shown) VH: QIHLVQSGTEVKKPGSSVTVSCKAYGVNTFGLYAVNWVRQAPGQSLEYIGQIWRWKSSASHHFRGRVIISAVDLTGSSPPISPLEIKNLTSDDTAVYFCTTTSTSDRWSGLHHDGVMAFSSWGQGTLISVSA VL: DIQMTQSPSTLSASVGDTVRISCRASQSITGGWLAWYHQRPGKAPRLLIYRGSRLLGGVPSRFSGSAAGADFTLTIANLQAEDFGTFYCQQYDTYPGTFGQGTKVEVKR
Result block: > 15 µg/mL
